The following compounds are listed with their measured pEC50 values.
Biological target: F508delCFTR cell surface expression in CFBE41o-F508delCFTR-HRP cells (Homo sapiens, UniProt P13569, DEL508-508)
Construct: fused on or other part: Horseradish peroxidase (HRP) reporter inserted in the fourth exofacial (extracellular) loop of CFTR; expression is doxycycline-inducible
Sequence (P13569 with tags, fused parts or gaps DEL508-508 limits assumed): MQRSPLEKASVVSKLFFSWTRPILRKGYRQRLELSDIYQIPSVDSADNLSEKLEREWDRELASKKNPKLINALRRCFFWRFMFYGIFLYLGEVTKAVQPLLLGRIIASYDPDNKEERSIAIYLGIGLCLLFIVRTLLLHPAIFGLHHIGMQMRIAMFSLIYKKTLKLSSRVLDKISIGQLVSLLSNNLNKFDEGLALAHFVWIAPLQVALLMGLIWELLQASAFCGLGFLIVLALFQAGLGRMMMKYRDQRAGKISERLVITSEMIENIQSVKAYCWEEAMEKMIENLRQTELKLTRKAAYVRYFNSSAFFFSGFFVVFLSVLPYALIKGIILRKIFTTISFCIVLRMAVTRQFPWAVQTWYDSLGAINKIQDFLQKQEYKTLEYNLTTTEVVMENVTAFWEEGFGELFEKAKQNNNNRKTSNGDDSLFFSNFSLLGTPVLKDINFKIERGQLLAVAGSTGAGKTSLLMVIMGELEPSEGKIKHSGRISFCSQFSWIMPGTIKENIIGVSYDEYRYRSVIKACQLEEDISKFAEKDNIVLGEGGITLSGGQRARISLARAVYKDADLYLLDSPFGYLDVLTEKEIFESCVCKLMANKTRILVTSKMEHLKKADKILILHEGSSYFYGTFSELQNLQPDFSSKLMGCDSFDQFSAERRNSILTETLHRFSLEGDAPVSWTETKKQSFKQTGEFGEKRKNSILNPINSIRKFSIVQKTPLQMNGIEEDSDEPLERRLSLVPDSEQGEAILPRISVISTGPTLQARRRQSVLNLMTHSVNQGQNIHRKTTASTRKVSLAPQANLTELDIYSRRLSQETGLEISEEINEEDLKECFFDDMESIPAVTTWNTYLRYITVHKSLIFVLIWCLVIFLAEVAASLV
Sequence (P13569 919-1480 limits assumed, stated change not applied): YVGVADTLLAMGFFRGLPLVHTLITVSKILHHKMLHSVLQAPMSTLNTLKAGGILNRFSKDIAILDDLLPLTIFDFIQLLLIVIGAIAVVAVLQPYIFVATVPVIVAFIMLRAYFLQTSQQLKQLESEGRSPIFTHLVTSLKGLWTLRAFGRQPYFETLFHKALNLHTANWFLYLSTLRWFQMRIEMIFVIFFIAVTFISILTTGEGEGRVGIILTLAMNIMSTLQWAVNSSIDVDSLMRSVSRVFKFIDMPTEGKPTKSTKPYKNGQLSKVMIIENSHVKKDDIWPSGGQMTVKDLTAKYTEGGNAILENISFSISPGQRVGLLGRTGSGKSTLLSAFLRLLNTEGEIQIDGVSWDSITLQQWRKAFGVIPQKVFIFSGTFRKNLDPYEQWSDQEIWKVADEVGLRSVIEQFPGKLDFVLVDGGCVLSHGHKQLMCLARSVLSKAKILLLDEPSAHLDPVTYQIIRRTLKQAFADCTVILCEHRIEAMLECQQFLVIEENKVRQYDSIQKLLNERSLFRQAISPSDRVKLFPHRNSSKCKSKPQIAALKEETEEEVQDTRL
Assay: Cell Surface Expression-Horse Radish Peroxidase (CSE-HRP) Assay
Settings: CFBE41o-F508delCFTR-HRP cells, 18-24 hours at 33° C., 8-point curve, highest concentration 20 μM
Value format note: pEC50 is -log10 of concentration (mol/L); just state the number.

Worked examples follow.
compound | measurement.kind | reported.value
COc1ccc2c(c1)O[C@H](Cn1ncccc1=O)C[C@@H]2NC(=O)[C@@]1(C)COc2cc3c(cc21)OC(F)(F)O3 [Example 284] | pEC50 | 5.40
COc1ccc2c(c1)O[C@@H](c1ccc(CO)nc1)C[C@H]2NC(=O)[C@@]1(C)COc2cc3c(cc21)OC(F)(F)O3 [Example 178] | pEC50 | 6.54
COc1ccc2c(c1)O[C@@H](c1ccc(C(=O)NCC(N)=O)cn1)C[C@H]2NC(=O)[C@@]1(C)COc2cc3c(cc21)OC(F)(F)O3 [Example 227] | pEC50 | 7.15

Briefly, pEC50 measured for COc1ccc2c(c1)O[C@@H](c1ccc(C(=O)NC3c4ccccc4CC3O)cn1)C[C@H]2NC(=O)[C@@]1(C)COc2cc3c(cc21)OC(F)(F)O3 (stereo partly shown) [Example 221] : 7.10
